System: HBV (HepG2.117 cell line, inducibly HBV producing)
Test: Anti-HBV activity: intracellular HBV DNA by real-time PCR in HepG2.117 cells after 3 days of treatment
Assay type: cell-based, hepatitis B virus
Conditions: Hepatitis B virus, HepG2.117, 72 h, HepG2.117 cells, 3 days of treatment, intracellular HBV DNA by real-time PCR; mean value; read-out: EC50 (μM, mean value)
measured endpoint: EC50 (µM)
Write the number in µM without appending the unit.

Read the entry CNC(=O)c1ccc(-n2c(NC(C)C)nc3c(c2=O)C[C@@H](C)N(C(=O)c2ccc(Cl)c(Cl)c2)C3)nc1 [Compound C304] and write its reported EC50.
0.07

Read the entry CNC(=O)c1ccc(-n2c(N3CCC[C@@H]3C)nc3c(c2=O)C[C@@H](C)N(C(=O)c2ccc(Cl)c(Cl)c2)C3)cc1 [Compound C271] and write its reported EC50.
0.27

Read the entry CNC(=O)C12CC(n3c(NC(C)C)nc4c(c3=O)C[C@@H](C)N(C(=O)c3ccc(Cl)c(Cl)c3)C4)(C1)C2 [Compound C261] and write its reported EC50.
0.34

Read the entry CNC(=O)c1ccc(-n2c(NC(C)C)nc3c(c2=O)C[C@@H](C)N(C(=O)c2ccc(Cl)c(Cl)c2)C3)cc1OC [Compound C317] and write its reported EC50.
0.14

Read the entry COc1ccc(CNc2nc3c(c(=O)n2-c2ccc(C(C)=O)cc2)CCN(C(=O)c2ccc(Cl)c(Cl)c2)C3)cc1 [Compound C126] and write its reported EC50.
1.51

Read the entry COc1ccccc1-n1c(SC)nc2c(c1=O)CCN(C(=O)c1ccc(Cl)c(Cl)c1)C2 [Compound C4] and write its reported EC50.
1.79

Read the entry Cc1cc(-n2cccn2)ccc1-n1c(NC(C)C)nc2c(c1=O)C[C@@H](C)N(C(=O)c1ccc(Cl)c(Cl)c1)C2 [Compound C308] and write its reported EC50.
0.11

Read the entry O=C(c1ccc(Cl)c(Cl)c1)N1CCc2c(nc(NCc3ccccc3)n(-c3ccccc3)c2=O)C1 [Compound C33] and write its reported EC50.
4.27

Read the entry CNc1noc2ccc(-n3c(NC(C)C)nc4c(c3=O)C[C@@H](C)N(C(=O)c3ccc(Cl)c(Cl)c3)C4)cc12 [Compound C263] and write its reported EC50.
0.17

Read the entry CC(C)Nc1nc2c(c(=O)n1-c1ccc(C(=O)NCCN)cc1)C[C@@H](C)N(C(=O)c1ccc(Cl)c(Cl)c1)C2 [Compound C197] and write its reported EC50.
1.81

Read the entry CNC(=O)c1ccc(-n2c(N3CC4CC3C4)nc3c(c2=O)C[C@@H](C)N(C(=O)c2ccc(Cl)c(C(F)(F)F)c2)C3)c(Cl)c1 (single isomer, unassigned) [Compound C701a] and write its reported EC50.
0.04

Read the entry CC(C)Nc1nc2c(c(=O)n1-c1ccc(S(C)(=O)=O)cc1)CCN(C(=O)c1ccc(Cl)c(Cl)c1)C2 [Compound C85] and write its reported EC50.
0.85

Read the entry COc1ccc(CNc2nc3c(c(=O)n2C2CCS(=O)(=O)CC2)CCN(C(=O)c2ccc(Cl)c(Cl)c2)C3)cc1 [Compound C119] and write its reported EC50.
6.95

Read the entry CC(C)Nc1nc2c(c(=O)n1-c1ccc(Cl)nc1)C[C@@H](C)N(C(=O)c1ccc(Cl)c(Cl)c1)C2 [Compound C228] and write its reported EC50.
0.27

Read the entry CNC(=O)c1ccc(-n2c(N[C@@H]3CCCC3(C)C)nc3c(c2=O)C[C@@H](C)N(C(=O)c2ccc(Cl)c(Cl)c2)C3)cc1 (single isomer, unassigned) [Compound C318] and write its reported EC50.
0.68

Read the entry COc1ccc(CNc2nc3c(c(=O)n2-c2cccc(C(F)(F)F)c2)CCN(C(=O)c2ccc(Cl)c(Cl)c2)C3)cc1 [Compound C7] and write its reported EC50.
2.03

Read the entry CC(C)Nc1nc2c(c(=O)n1-c1ccc(-c3cccc(N4CCOCC4)n3)cc1)CCN(C(=O)c1ccc(Cl)c(Cl)c1)C2 [Compound C173] and write its reported EC50.
0.88

Read the entry CC(C)NC(=O)c1ccc(-n2c(NC(C)C)nc3c(c2=O)C[C@@H](C)N(C(=O)c2ccc(Cl)c(Cl)c2)C3)cc1 [Compound C178] and write its reported EC50.
0.04

Read the entry CC(C)Nc1nc2c(c(=O)n1-c1ccc(S(C)(=O)=O)cc1)CCN(C(=O)c1cc3cc(F)c(F)cc3[nH]1)C2 [Compound C165] and write its reported EC50.
0.05

Read the entry COc1ccc(CNc2nc3c(c(=O)n2-c2cccc(OC)c2)CCN(C(=O)c2ccc(Cl)c(Cl)c2)C3)cc1 [Compound C8] and write its reported EC50.
1

Read the entry CC(C)Nc1nc2c(c(=O)n1-c1ccc(S(C)(=O)=O)cc1)CCN(C(=O)c1ccn3nccc3c1)C2 [Compound C138] and write its reported EC50.
5.98

Read the entry COC(=O)c1ccc(-n2c(NC(C)C)nc3c(c2=O)C[C@@H](C)N(C(=O)c2ccc(Cl)c(Cl)c2)C3)cn1 [Compound C226] and write its reported EC50.
2.3

Read the entry COc1ccc(CNc2nc3c(c(=O)n2-c2ccc(C(N)=O)cc2)CCN(C(=O)c2ccc(Cl)c(Cl)c2)C3)cc1 [Compound C149] and write its reported EC50.
1.5

Read the entry CNC(=O)c1ncc(-n2c(NC(C)C)nc3c(c2=O)C[C@@H](C)N(C(=O)c2ccc(Cl)c(Cl)c2)C3)cn1 [Compound C328] and write its reported EC50.
0.51

Read the entry CCOC(=O)[C@H]1CC[C@@H](n2c(NC(C)C)nc3c(c2=O)C[C@@H](C)N(C(=O)c2ccc(Cl)c(Cl)c2)C3)CC1 [Compound C273] and write its reported EC50.
0.31
